Assay: NCI Yeast Anticancer Drug Screen. Data for the sgs1 mgt1 strain (AID 161);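 also: 0% = growth of cultures given vehicle only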
Conditions: S. cerevisiae sgs1 mgt1 strain, at 50.0 µM
Experimental: Growth inhibition of yeast strains with defined genetic alterations is measured as a screen for potential anti-cancer activity. Selected strains with alterations in DNA damage repair or cell cycle control were exposed to compounds and growth inhibition was measured relative to vehicle treated controls. The strain used in this assay is sgs1 mgt1
Compounds without any hit were thinned out: in the full panel of roughly 79,000, 15% have a hit. The source made the active and inactive calls. Rule as the data show it: active = growth inhibition above about 70%; inactive = the rest.
Labels: active, inactive

[
  {
    "molecule": "Clc1ccc(C(Cl)(c2ccc(Cl)cc2)C(Cl)(Cl)Cl)cc1",
    "category": "inactive"
  },
  {
    "molecule": "O=C1C(c2ccccc2Cl)[C@H]2CC=C[C@H]2N1O (some centres not stated)",
    "category": "inactive"
  },
  {
    "molecule": "CC(C)CC1=C(O)c2ccccc2C(=O)C1=O",
    "category": "inactive"
  },
  {
    "molecule": "CN1C/C(=C\\C=C\\c2ccccc2)C(=O)/C(=C/C=C/c2ccccc2)C1",
    "category": "inactive"
  },
  {
    "molecule": "CC(=O)OCC12CC(c3ccoc3)OC3CCC4C(=O)OC(CC1C)C4(C)C32 (configuration not stated)",
    "category": "inactive"
  },
  {
    "molecule": "CCc1c(C)c(C#N)c(=S)n(C2OC(COC(C)=O)C(OC(C)=O)C(OC(C)=O)C2OC(C)=O)c1-c1ccccc1 (configuration not stated)",
    "category": "inactive"
  },
  {
    "molecule": "CCCCCCCCCCCCCCCC[N+]1(CC)CCSCC1",
    "category": "active"
  },
  {
    "molecule": "CCCCCC(CN(C)C)C(=O)CC(SCC)c1ccc(Cl)c(Cl)c1 (configuration not stated)",
    "category": "active"
  },
  {
    "molecule": "OC(C1COCO1)C1OCOC1C1COCO1 (configuration not stated)",
    "category": "inactive"
  },
  {
    "molecule": "Cc1cc(O)c(/C=N/C(=O)NN)c(=O)o1",
    "category": "inactive"
  },
  {
    "molecule": "CCOC(=O)CCC[Si](CC)(CC)CC",
    "category": "inactive"
  },
  {
    "molecule": "Cc1nn(C(=O)CC(=O)Nc2ccccc2Cl)c(C)c1N=Nc1ccccc1Cl",
    "category": "inactive"
  }
]

---

Recorded measurements of growth inhibition, one per entry
assay: NCI Yeast Anticancer Drug Screen. Data for the cln2 rad14 strain (AID 165);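 also: 0% = growth equal to vehicle treated cultures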; settings: S. cerevisiae cln2 rad14 strain, at 50.0 µM, stronger effect = higher value
This is part of a sample that, as a whole, favours compounds with a hit. Of some 79,000 tested, about 15% had one in any assay.
outcome-measure: growth inhibition (%)

[
  {
    "compound": "CCCC(C)C(SC(CC)C(N)=O)C(=O)O (configuration not stated)",
    "outcome-measure": "growth inhibition",
    "numeric-result": -12.8
  },
  {
    "compound": "NC(Cc1ccccc1)C(=O)Nc1ccccc1 (configuration not stated)",
    "outcome-measure": "growth inhibition",
    "numeric-result": 13.3
  },
  {
    "compound": "S=C1c2cc(Cl)ccc2NC(=NC2CCCC2)C2CSCN12 (configuration not stated)",
    "outcome-measure": "growth inhibition",
    "numeric-result": -3.25
  },
  {
    "compound": "O=NN(C(=O)NCCCl)c1[nH]c(=O)ncc1I",
    "outcome-measure": "growth inhibition",
    "numeric-result": -25.2
  },
  {
    "compound": "CC(=O)/C=C1/NC(C(=O)c2ccccc2)=CNC1c1ccccc1 (configuration not stated)",
    "outcome-measure": "growth inhibition",
    "numeric-result": -14.5
  },
  {
    "compound": "CC(C)NCCO",
    "outcome-measure": "growth inhibition",
    "numeric-result": 21.2
  },
  {
    "compound": "COc1ccc(C2CC(=O)N(CC(=O)O)C(=O)C2)cc1",
    "outcome-measure": "growth inhibition",
    "numeric-result": -17
  },
  {
    "compound": "C[N+](C)(C)C1=CC=CC=C1.Br[Br-]Br",
    "outcome-measure": "growth inhibition",
    "numeric-result": 4.7
  },
  {
    "compound": "CC12CCC(=O)C=C1CCC1C2CCC2(C)C(C(=O)Cn3c(=O)[nH]cc(F)c3=O)CCC12 (configuration not stated)",
    "outcome-measure": "growth inhibition",
    "numeric-result": 8.85
  },
  {
    "compound": "N#CCCSC(=S)C1CCCCC1=N (configuration not stated)",
    "outcome-measure": "growth inhibition",
    "numeric-result": -112
  },
  {
    "compound": "OCC1OC2OC(c3ccccc3)(c3ccc(OCc4ccccc4)nc3OCc3ccccc3)OC2C1O (configuration not stated)",
    "outcome-measure": "growth inhibition",
    "numeric-result": 14.8
  },
  {
    "compound": "O=C1C(Cl)N(c2c(Cl)cccc2Cl)C1c1c[nH]c2ccccc12 (configuration not stated)",
    "outcome-measure": "growth inhibition",
    "numeric-result": -22.4
  }
]

---

# key: entry, value: growth inhibition
Assay: NCI Yeast Anticancer Drug Screen. Data for the mec2-1 strain (AID 157)
Conditions: S. cerevisiae mec2-1 strain, at 50.0 µM, stronger effect = higher value
Method: Growth inhibition of yeast strains with defined genetic alterations is measured as a screen for potential anti-cancer activity. Selected strains with alterations in DNA damage repair or cell cycle control were exposed to compounds and growth inhibition was measured relative to vehicle treated controls. The strain used in this assay is mec2-1
About 79,000 compounds went through this panel and 15% of them were active in at least one assay; those are over-represented in the sample as a whole.

[
  {
    "compound": "CC(C)=CCCC(=O)C(c1nc2nnc(N)n2[nH]c1=O)c1nc2nnc(N)n2[nH]c1=O",
    "unit-text": "%",
    "growth inhibition": 13.6
  },
  {
    "compound": "CN(C(=O)C(Cl)Cl)c1ccc(-c2csc(Cc3ccccc3)n2)cc1",
    "unit-text": "%",
    "growth inhibition": 6.3
  },
  {
    "compound": "CC(=O)Nc1ccc(/C=N\\N=C\\c2ccc(NC(C)=O)cc2)cc1",
    "unit-text": "%",
    "growth inhibition": 13.7
  },
  {
    "compound": "NC(=S)N/C=C\\c1nc2ccccc2[nH]c1=O",
    "unit-text": "%",
    "growth inhibition": -18.6
  },
  {
    "compound": "Cc1cc(C)c(C)c(C)c1C",
    "unit-text": "%",
    "growth inhibition": -8.15
  },
  {
    "compound": "CCOC(=N)c1cn(C2OC(CO)C(O)C2O)c2nc[nH]c(=O)c12 (stereo unspecified)",
    "unit-text": "%",
    "growth inhibition": -5.25
  },
  {
    "compound": "O=c1cc2n(c(=O)n1Cc1ccccc1)CCC2",
    "unit-text": "%",
    "growth inhibition": 4.25
  },
  {
    "compound": "O=C(N/N=C/c1ccc(Cl)cc1Cl)c1cccc2ccccc12",
    "unit-text": "%",
    "growth inhibition": -6.3
  },
  {
    "compound": "CCC(C)SC1=NC(N)=NC2=NC=NC21 (stereo unspecified)",
    "unit-text": "%",
    "growth inhibition": -2.85
  },
  {
    "compound": "NC(=O)c1ccccc1OC(=O)Nc1ccccc1",
    "unit-text": "%",
    "growth inhibition": 7.5
  },
  {
    "compound": "N[C@H](CCC(=O)NCP(=O)(O)O)C(=O)O",
    "unit-text": "%",
    "growth inhibition": -42.6
  },
  {
    "compound": "CCCCCCCCCCCC(=O)Nc1ccc(C(C)C)cc1",
    "unit-text": "%",
    "growth inhibition": -7.6
  },
  {
    "compound": "[Cl][Mn][Cl]",
    "unit-text": "%",
    "growth inhibition": 6.4
  },
  {
    "compound": "c1ccc(CN2CCCCC(Sc3ccccc3)CC2)cc1 (stereo unspecified)",
    "unit-text": "%",
    "growth inhibition": 93.8
  },
  {
    "compound": "Cn1cc2c(=O)n(OS(=O)(=O)c3ccccc3)c(=O)[nH]c2n1",
    "unit-text": "%",
    "growth inhibition": -11.8
  },
  {
    "compound": "O=C(O)C1C2OC3C(OC(=O)C31)C2Cl (stereo unspecified)",
    "unit-text": "%",
    "growth inhibition": 6
  },
  {
    "compound": "CSc1nc(NC2OC(COC(C)=O)C(OC(C)=O)C(OC(C)=O)C2OC(C)=O)c(N=C(C)C(C)=O)c(=O)n1C (stereo unspecified)",
    "unit-text": "%",
    "growth inhibition": -7.75
  },
  {
    "compound": "Cn1c(=O)c2[nH]c(SC3CCCCC3)nc2n(C)c1=O",
    "unit-text": "%",
    "growth inhibition": 11.4
  },
  {
    "compound": "C=CCCCCCCCCCO",
    "unit-text": "%",
    "growth inhibition": -11
  },
  {
    "compound": "COc1nc(OC)c2cnn(-c3ccc(Cl)cc3)c2n1",
    "unit-text": "%",
    "growth inhibition": -4.6
  },
  {
    "compound": "CCN(CC)C(=O)CNC(=O)C(c1ccccc1)c1ccccc1",
    "unit-text": "%",
    "growth inhibition": -6.2
  },
  {
    "compound": "O=C1CSC(c2cccc([N+](=O)[O-])c2)N1c1ccc(-n2c(-c3ccccc3)nc3ccccc3c2=O)cc1 (stereo unspecified)",
    "unit-text": "%",
    "growth inhibition": -17.1
  },
  {
    "compound": "CCOc1ccc(NC(=O)CCc2nnc(SC)o2)cc1",
    "unit-text": "%",
    "growth inhibition": -17.2
  },
  {
    "compound": "COC(=O)C(C)(N)Cc1ccc(O)c(C)c1 (stereo unspecified)",
    "unit-text": "%",
    "growth inhibition": 10.8
  },
  {
    "compound": "CCN(CC)S(=O)(=O)Nc1c(C)n(C)n(-c2ccccc2)c1=O",
    "unit-text": "%",
    "growth inhibition": -17.2
  },
  {
    "compound": "Nc1ccccc1CN1C(=O)CCC1=O",
    "unit-text": "%",
    "growth inhibition": -6.8
  }
]
